Items are presented alongside their recorded Ki.
TARGET_OF_ASSAY: hCB2R (Homo sapiens (Human))
Sequence (P34972 whole entry): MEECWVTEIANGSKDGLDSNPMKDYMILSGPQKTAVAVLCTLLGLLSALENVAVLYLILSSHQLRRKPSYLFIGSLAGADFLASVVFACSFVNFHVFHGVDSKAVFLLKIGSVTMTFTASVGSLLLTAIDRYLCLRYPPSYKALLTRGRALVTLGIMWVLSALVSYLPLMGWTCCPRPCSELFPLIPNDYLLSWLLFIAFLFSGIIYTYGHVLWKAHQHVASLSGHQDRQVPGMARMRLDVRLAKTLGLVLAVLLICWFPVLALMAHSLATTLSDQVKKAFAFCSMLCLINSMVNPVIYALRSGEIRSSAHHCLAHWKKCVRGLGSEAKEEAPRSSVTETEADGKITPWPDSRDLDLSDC
ASSAY: [3H]CP-55,940 competition displacement binding, membranes of CHO-K1 cells expressing human CB2R
COND: displacement of [3H]CP-55,940
Kindly answer with a numeric value in nM, unit omitted.

Reference set, count: 3
CCCCCCC(C)(C)c1cc(OC)c(C2(O)C3(C)CCC(C3)C2(C)C)c(OC)c1F (single isomer, unassigned) [Compound 4d]	56.6
CCCCCCC(C)(C)c1cc(O)c(C2(O)C3(C)CCC(C3)C2(C)C)c(OC)c1 (stereo not shown) [Compound 5c]	107
CCCCCCC(C)(C)c1cc(OC)c([C@@]2(O)C3(C)CCC(C3)C2(C)C)c(OC)c1 (stereo partly shown) [Compound 1c]	56.8

// below: Ki requested for another compound
*Q* Quick one: Ki for CCCCCCC(C)(C)c1cc(OC)c([C@]2(O)C3(C)CCC(C3)C2(C)C)c(OC)c1 (stereo partly shown) [Compound 1d] ?
*A* 3.51
